# TARGET_OR_SYSTEM: Pro-neuregulin-1, membrane-bound isoform (Homo sapiens) (UniProt Q02297)
# Sequence (Q02297 whole entry, looked up, canonical isoform): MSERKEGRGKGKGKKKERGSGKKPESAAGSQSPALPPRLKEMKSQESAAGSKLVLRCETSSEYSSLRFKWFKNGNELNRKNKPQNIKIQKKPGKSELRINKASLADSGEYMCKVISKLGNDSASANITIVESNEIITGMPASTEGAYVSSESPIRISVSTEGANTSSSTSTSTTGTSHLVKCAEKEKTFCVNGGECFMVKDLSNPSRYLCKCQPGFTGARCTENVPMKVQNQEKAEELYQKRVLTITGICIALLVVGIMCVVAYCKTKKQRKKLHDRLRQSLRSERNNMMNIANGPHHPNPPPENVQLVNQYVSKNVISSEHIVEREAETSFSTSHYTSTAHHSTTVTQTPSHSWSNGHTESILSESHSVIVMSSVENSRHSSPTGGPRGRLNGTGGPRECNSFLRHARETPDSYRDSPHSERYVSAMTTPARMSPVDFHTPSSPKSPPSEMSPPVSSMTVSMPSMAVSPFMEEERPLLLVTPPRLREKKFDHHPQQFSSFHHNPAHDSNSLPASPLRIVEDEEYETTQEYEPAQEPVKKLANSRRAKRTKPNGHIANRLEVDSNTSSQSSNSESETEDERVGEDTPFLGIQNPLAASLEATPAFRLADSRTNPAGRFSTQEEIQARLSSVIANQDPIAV
# ASSAY_OVERVIEW: small molecules binding neuregulin-1 protein – biochemical, small-molecule microarray, fluorescence 635/667, psychiatric disease protein project, primary screen (AID 1075);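 note: score combines 667 nm spot fluorescence with signal to noise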
# SETTINGS: NRG1 binding, 635 nm fluorescence, higher = more signal
Is composite z-score at least 1? Then MET. If not, NOT MET.

**Query** Check if composite z-score >= 1 (inclusive). Item: "O=C1[C@@H]2[C@@H](CC(COc3ccccc3)=C([C@H](O)CCc3ccccc3)[C@@H]2CO)C(=O)N1Cc1ccccc1"
**Result** NOT MET

**Query** Check if composite z-score >= 1 (inclusive). Item: "CCOC(=O)C[C@H]1[C@H](OC(=O)Cc2ccc3c(c2)OCO3)[C@@H](NC(=O)Cc2ccc(OC)cc2)c2cc(OCCCO)ccc2N1C(=O)Cc1ccc(OC)cc1"
**Result** NOT MET

**Query** Check if composite z-score >= 1 (inclusive). Item: "COC(=O)[C@@]1(Cc2ccccc2)[C@H]2c3cc(C(=O)N(C)C)n(Cc4ccc(S(C)(=O)=O)cc4)c3C[C@H]2CN1C(=O)c1ccccc1"
**Result** MET

**Query** Check if composite z-score >= 1 (inclusive). Item: CC(C)OC(=O)CC(=O)CC(O)c1cccc([N+](=O)[O-])c1 (stereo unspecified)
**Result** NOT MET

**Query** Check if composite z-score >= 1 (inclusive). Item: "CO[C@H]1O[C@H](CO)[C@@H](OC(=O)Nc2ccccc2)[C@H](OC(=O)Nc2ccccc2)[C@H]1OC(=O)Nc1ccccc1"
**Result** NOT MET

**Query** Check if composite z-score >= 1 (inclusive). Item: "CC(C)C(=C=CC[C@H](O)c1ccccc1OCCO)C[C@H](O)COCc1ccccc1"
**Result** NOT MET

**Query** Check if composite z-score >= 1 (inclusive). Item: "COCCCNC(=O)[C@@]1(CCS(=O)(=O)c2ccccc2)COC(c2ccc(OCCCO)cc2)=N1"
**Result** MET

**Query** Check if composite z-score >= 1 (inclusive). Item: "COc1ccc(CCNC(=O)[C@@H]2c3ccccc3C(=O)N(Cc3ccccc3OC)[C@H]2c2ccc(CO)cc2)cc1"
**Result** MET

**Query** Check if composite z-score >= 1 (inclusive). Item: [N-]=[N+]=Nc1ccccc1C[C@@]1(C(=O)NCC(O)CO)N=C(c2ccc(OCCCO)cc2)O[C@@H]1c1ccccc1 (stereo partly specified)
**Result** NOT MET

**Query** Check if composite z-score >= 1 (inclusive). Item: C=CC[C@]1(C(=O)NCC(O)CO)COC(c2ccc(OCCCO)cc2)=N1 (stereo partly specified)
**Result** NOT MET

**Query** Check if composite z-score >= 1 (inclusive). Item: C=C(C)[C@@H]1CC=C(C(O)C2C=CC3C(=O)N(c4ccccc4)C(=O)C3N2Nc2ccc([N+](=O)[O-])cc2)CC1 (stereo partly specified)
**Result** MET

**Query** Check if composite z-score >= 1 (inclusive). Item: NC(=O)N1C(=O)C2C(C1=O)C1C=C(CCCO)C2C(c2ccc(CN3CCCC3)cc2)N1Cc1cc2c(cc1Br)OCO2 (stereo unspecified)
**Result** NOT MET

**Query** Check if composite z-score >= 1 (inclusive). Item: CN1C(=O)C2C(C1=O)C1C=C(CCCO)C2C(C2CC2)N1Cc1cccc(OC(F)(F)F)c1 (stereo unspecified)
**Result** MET

**Query** Check if composite z-score >= 1 (inclusive). Item: "C=C(COC)C(=O)CC[C@@H](OC(C)=O)c1ccccc1OCCO"
**Result** NOT MET

**Query** Check if composite z-score >= 1 (inclusive). Item: "CN(C)CCCNC(=O)[C@@]1(C)c2ccccc2C(=O)N(Cc2ccc(OC(F)(F)F)cc2)[C@H]1c1ccc(CO)cc1"
**Result** MET

**Query** Check if composite z-score >= 1 (inclusive). Item: "COc1cc(CO)cc(I)c1O[C@H]1C=C(C(=O)NCCO)C[C@@H]2O[C@H]12"
**Result** NOT MET

**Query** Check if composite z-score >= 1 (inclusive). Item: "O=C1[C@H]2C=C(I)[C@H](C[C@@H]2c2ccccc2)[C@@]12CO2"
**Result** NOT MET

**Query** Check if composite z-score >= 1 (inclusive). Item: CC(C)C[C@H]1NC(=O)C([C@@H](C)OCc2ccccc2)NC(=O)[C@@]23C(=O)N[C@@H](Cc4ccccc4)C2[C@H](C)[C@@]2(C)O[C@H]2C3/C=C/C/C=C\CNC1=O (stereo partly specified)
**Result** MET

**Query** Check if composite z-score >= 1 (inclusive). Item: "Cc1ccc(S[C@]2(C(=O)NCCCN(C)C)CC(=O)N(C3Cc4ccccc4C3)[C@@H]2c2ccc(CO)cc2I)cc1"
**Result** MET

**Query** Check if composite z-score >= 1 (inclusive). Item: "CN(C)CCCCNC(=O)[C@H]1C[C@H]2C(=O)NCC(=O)N2[C@H]1c1ccc(O)cc1"
**Result** NOT MET

**Query** Check if composite z-score >= 1 (inclusive). Item: "CN(C)C(=O)[C@]1(Cc2ccccc2)N=C(c2ccc(OCCCO)cc2)O[C@@H]1c1ccccc1CN=[N+]=[N-]"
**Result** MET

**Query** Check if composite z-score >= 1 (inclusive). Item: "CO[C@H]1O[C@H](CO)[C@@H](OC(=O)Nc2ccc3c(c2)OCO3)[C@H](OC(=O)Nc2ccccc2-c2ccccc2)[C@H]1OC(=O)Nc1ccccc1-c1ccccc1"
**Result** NOT MET

**Query** Check if composite z-score >= 1 (inclusive). Item: "[N-]=[N+]=NCc1ccccc1[C@@H]1OC(c2ccc(OCCCO)cc2)=N[C@]1(Cc1ccccc1N=[N+]=[N-])C(=O)O"
**Result** MET

**Query** Check if composite z-score >= 1 (inclusive). Item: O=C1C2C=CC(C(O)c3cccs3)N(Nc3ccc([N+](=O)[O-])cc3)C2C(=O)N1c1ccccc1 (stereo unspecified)
**Result** MET

**Query** Check if composite z-score >= 1 (inclusive). Item: "CO[C@H]1O[C@H](CO)[C@@H](OC(=O)Nc2ccccc2-c2ccccc2)[C@H](OC(=O)Nc2ccccc2)[C@H]1OC(=O)Nc1ccccc1"
**Result** MET

**Query** Check if composite z-score >= 1 (inclusive). Item: N#Cc1ccc(C(O)C2C=CC3C(=O)NC(=O)C3N2Nc2ccc(Cl)cc2Cl)cc1 (stereo unspecified)
**Result** MET

**Query** Check if composite z-score >= 1 (inclusive). Item: "O=C1C[C@@](C(=O)NC2CC2)(c2ccc([N+](=O)[O-])cc2)[C@@H](c2ccc(CO)cc2)N1C1CCCCC1"
**Result** MET

**Query** Check if composite z-score >= 1 (inclusive). Item: C=CCC(OC(C)=O)[C@@H]1[C@@H](N(Cc2ccc(-c3cccc(C(F)(F)F)c3)o2)C(=O)Cc2ccc(F)cc2)c2cc(OCCCO)ccc2N1C(=O)Cc1ccc2ccccc2c1 (stereo partly specified)
**Result** NOT MET

**Query** Check if composite z-score >= 1 (inclusive). Item: "CN1C(=O)[C@@H]2[C@@H](CC(COc3ccccc3)=C3[C@@H](CCc4ccccc4)OB(O)C[C@@H]32)C1=O"
**Result** NOT MET

**Query** Check if composite z-score >= 1 (inclusive). Item: "O=C(NC1CC1)[C@@H]1c2ccccc2C(=O)N(Cc2cc(C(F)(F)F)cc(C(F)(F)F)c2)[C@H]1c1ccc(CO)cc1"
**Result** MET

**Query** Check if composite z-score >= 1 (inclusive). Item: "C=CCOC(=O)[C@H]1[C@@H]2C(=O)O[C@@H](c3ccccc3)[C@@H](c3ccccc3)N2[C@@H](c2ccc(OCCOC(=O)[C@H]3C[C@H]4C(=O)N[C@@H](CC(C)C)C(=O)N4[C@H]3c3ccc(O)cc3)cc2)[C@]12C(=O)Nc1ccccc12"
**Result** MET
